test system: SKOV3; assay: cells; assay type: cell-based, human; conditions: read-out: GI50 SKOV3 ovary

{"Compound": "CON(CCCCc1ccc(N(CCCl)CCCl)cc1)C1OC(CO)C(O)C(O)C1O (mixture of isomers) [Compound 44]", "Result Units": "µM", "GI50": 2.9}
{"Compound": "O=C(CCCc1ccc(N(CCCl)CCCl)cc1)NN[C@@H]1O[C@H]2[C@H](OC(=O)[C@H]2O)[C@H]1O", "Result Units": "µM", "GI50": 37}
{"Compound": "CON(CCCCc1ccc(N(CCCl)CCCl)cc1)C1OC(CO)C(O)C(O)C1O (stereo not shown) [Compound 29]", "Result Units": "µM", "GI50": 4.5}
{"Compound": "CON(CCCCc1ccc(N(CCCl)CCCl)cc1)C1OCC(O)C(O)C1O (mixture of isomers) [Compound 42]", "Result Units": "µM", "GI50": 1.8}

###

system: SKOV3; assay: cells; type: cell-based, human; details: read-out: GI50 SKOV3 ovary

{"Molecule": "O=C(CCCc1ccc(N(CCCl)CCCl)cc1)NN=CC(O)C(O)CO (mixture of isomers) [Compound 74]", "Tgt": "SKOV3", "GI50": "6200 nM"}
{"Molecule": "CON(CCCCc1ccc(N(CCCl)CCCl)cc1)C1OC(CO)C(O)C(O)C1O (mixture of isomers) [Compound 12]", "Tgt": "SKOV3", "GI50": "1900 nM"}
{"Molecule": "CON(CCCCc1ccc(N(CCCl)CCCl)cc1)C1CC(O)C(O)C(C)O1 (stereo not shown) [Compound 50]", "Tgt": "SKOV3", "GI50": "3200 nM"}
{"Molecule": "O[C@@H]1[C@H](O)COC(N(O)CCCCc2ccc(N(CCCl)CCCl)cc2)[C@@H]1O (stereo partly shown) [Compound 68]", "Tgt": "SKOV3", "GI50": "890 nM"}

###

In this section we review reported GI50 values for a set of compounds.
system: SKOV3; experiment: cells; type: cell-based, human; details: read-out: GI50 SKOV3 ovary

{"Compound": "CON(CCCCc1ccc(N(CCCl)CCCl)cc1)C1OCC(O)C(O)C1O (mixture of isomers) [Compound 15]", "GI50 (nM)": 2200}
{"Compound": "CON(CCCCc1ccc(N(CCCl)CCCl)cc1)C1CC(O)C(O)C(CO)O1 (mixture of isomers) [Compound 25]", "GI50 (nM)": 2400}
{"Compound": "CON(CCCCc1ccc(N(CCCl)CCCl)cc1)C1OCC(O)C(O)C1O (mixture of isomers) [Compound 53]", "GI50 (nM)": 2000}
{"Compound": "CON(CCCCc1ccc(N(CCCl)CCCl)cc1)C1OC(CO)C(O)C(O)C1O (mixture of isomers) [Compound 10]", "GI50 (nM)": 3000}

###

Measured log10(GI50) accompanies every entry in the list below.
system: SKOV3; assay: cells; type: cell-based, human; settings: read-out: GI50 SKOV3 ovary
Measurement Label: log10(GI50) (log10 of the value in µM)

{"Compound": "CON(CCCCc1ccc(N(CCCl)CCCl)cc1)C1CC(O)C(O)CO1 (mixture of isomers) [Compound 55]", "Measurement Label": "log10(GI50)", "Observed": 0.30}
{"Compound": "CON(CCCCc1ccc(N(CCCl)CCCl)cc1)C1OC(CO)C(O)C(O)C1F (centres unmarked) [Compound 31]", "Measurement Label": "log10(GI50)", "Observed": 0.30}
{"Compound": "CON(CCCCc1ccc(N(CCCl)CCCl)cc1)C1OCC(O)C1O (centres unmarked) [Compound 60]", "Measurement Label": "log10(GI50)", "Observed": 0.18}
{"Compound": "CON(CCCCc1ccc(N(CCCl)CCCl)cc1)[C@@H]1O[C@H](CO[C@H]2O[C@H](CO)[C@H](O)[C@H](O)[C@H]2O)[C@@H](O)[C@H](O)[C@H]1O [Compound 47]", "Measurement Label": "log10(GI50)", "Observed": 1.43}
{"Compound": "CON(CCCCc1ccc(N(CCCl)CCCl)cc1)C1OC(C)C(OC(C)=O)C(OC(C)=O)C1OC(C)=O (centres unmarked) [Compound 52]", "Measurement Label": "log10(GI50)", "Observed": 0.59}
{"Compound": "CON(CCCCc1ccc(N(CCCl)CCCl)cc1)C1O[C@H](CO)[C@@H](O[C@@H]2O[C@H](CO)[C@H](O)[C@H](O)[C@H]2O)[C@H](O)[C@@H]1O (some centres unmarked) [Compound 46]", "Measurement Label": "log10(GI50)", "Observed": 1.54}
{"Compound": "CON(CCCCc1ccc(N(CCCl)CCCl)cc1)C1OC(CO)C(O)C(F)C1O (centres unmarked) [Compound 32]", "Measurement Label": "log10(GI50)", "Observed": 0.34}
{"Compound": "CON(CCCCc1ccc(N(CCCl)CCCl)cc1)C1OC(CO)C(O)C(O)C1NC(C)=O (mixture of isomers) [Compound 27]", "Measurement Label": "log10(GI50)", "Observed": 1.04}
{"Compound": "CON(CCCCc1ccc(N(CCCl)CCCl)cc1)C1OCC(O)C(O)C1O (mixture of isomers) [Compound 41]", "Measurement Label": "log10(GI50)", "Observed": 0.26}
{"Compound": "CON(CCCCc1ccc(N(CCCl)CCCl)cc1)C1OC(C)C(O)C(O)C1O (mixture of isomers) [Compound 20]", "Measurement Label": "log10(GI50)", "Observed": 0.23}
{"Compound": "CON(CCCCc1ccc(N(CCCl)CCCl)cc1)C1CC(O)C(O)C(C)O1 (mixture of isomers) [Compound 18]", "Measurement Label": "log10(GI50)", "Observed": 0.48}
{"Compound": "C[C@H]1O[C@@H](NNC(=O)CCCc2ccc(N(CCCl)CCCl)cc2)[C@H](O)[C@@H](O)[C@H]1O [Compound 72]", "Measurement Label": "log10(GI50)", "Observed": 1.34}
{"Compound": "CON(CCCCc1ccc(N(CCCl)CCCl)cc1)C1OC(C(=O)O)C(O)C(O)C1O (centres unmarked) [Compound 38]", "Measurement Label": "log10(GI50)", "Observed": 0.49}
{"Compound": "CON(CCCCc1ccc(N(CCCl)CCCl)cc1)C1OC(C(=O)O)C(O)C(O)C1O (mixture of isomers) [Compound 26]", "Measurement Label": "log10(GI50)", "Observed": 1.11}
{"Compound": "CON(CCCCc1ccc(N(CCCl)CCCl)cc1)C1OC(CO)C(O)C(O)C1O (mixture of isomers) [Compound 11]", "Measurement Label": "log10(GI50)", "Observed": 0.49}
{"Compound": "CON(CCCCc1ccc(N(CCCl)CCCl)cc1)C1OC[C@H](O)[C@H](O)[C@@H]1O (some centres unmarked) [Compound 54]", "Measurement Label": "log10(GI50)", "Observed": 0.30}
{"Compound": "CON(CCCCc1ccc(N(CCCl)CCCl)cc1)C1OC(CO)C(O)C(O)C1O (mixture of isomers) [Compound 23]", "Measurement Label": "log10(GI50)", "Observed": 0.53}
{"Compound": "CON(CCCCc1ccc(N(CCCl)CCCl)cc1)C1OC(CO)C(O)C(O)C1O (mixture of isomers) [Compound 13]", "Measurement Label": "log10(GI50)", "Observed": 0.40}
{"Compound": "CON(CCCCc1ccc(N(CCCl)CCCl)cc1)C1CC(O)C(O)CO1 (mixture of isomers) [Compound 56]", "Measurement Label": "log10(GI50)", "Observed": 0.34}
{"Compound": "CON(CCCCc1ccc(N(CCCl)CCCl)cc1)C1OC(CO)C(O)C(O)C1NC(C)=O (mixture of isomers) [Compound 45]", "Measurement Label": "log10(GI50)", "Observed": 1.00}
{"Compound": "CON(CCCCc1ccc(N(CCCl)CCCl)cc1)C1OCC(O)C(O)C1O (mixture of isomers) [Compound 14]", "Measurement Label": "log10(GI50)", "Observed": 0.30}
{"Compound": "CON(CCCCc1ccc(N(CCCl)CCCl)cc1)C1OCC(O)C(O)C1O (centres unmarked) [Compound 62]", "Measurement Label": "log10(GI50)", "Observed": 0.34}
{"Compound": "CON(CCCCc1ccc(N(CCCl)CCCl)cc1)C1CC(O)C(O)C(CO)O1 (centres unmarked) [Compound 30]", "Measurement Label": "log10(GI50)", "Observed": 0.05}
{"Compound": "CON(CCCCc1ccc(N(CCCl)CCCl)cc1)C1OC(CO)C(OC2OC(CO)C(O)C(O)C2O)C(O)C1O (mixture of isomers) [Compound 17]", "Measurement Label": "log10(GI50)", "Observed": 0.26}
{"Compound": "CC(=O)OC1COC(N(CCCCc2ccc(N(CCCl)CCCl)cc2)OC(C)=O)C(OC(C)=O)C1OC(C)=O (mixture of isomers) [Compound 69]", "Measurement Label": "log10(GI50)", "Observed": -0.28}
{"Compound": "O=C(CCCc1ccc(N(CCCl)CCCl)cc1)NNC1OC[C@@H](O)[C@H](O)[C@H]1O (some centres unmarked) [Compound 75]", "Measurement Label": "log10(GI50)", "Observed": 1.08}
{"Compound": "CON(CCCCc1ccc(N(CCCl)CCCl)cc1)C1OC(CO)C(O)C(O)C1O (mixture of isomers) [Compound 43]", "Measurement Label": "log10(GI50)", "Observed": 0.36}
{"Compound": "C[C@H]1OC(N(O)CCCCc2ccc(N(CCCl)CCCl)cc2)[C@H](O)[C@@H](O)[C@H]1O (some centres unmarked) [Compound 66]", "Measurement Label": "log10(GI50)", "Observed": 0.67}
{"Compound": "C=CCOC(=O)NCC1OC(N(CCCCc2ccc(N(CCCl)CCCl)cc2)OC)C(O)C(O)C1O (centres unmarked) [Compound 35]", "Measurement Label": "log10(GI50)", "Observed": 0.46}
